target: Cathepsin K (Homo sapiens, UniProt P43235); experiment: Inhibition of human recombinant cathepsin K using Z-Leu-Arg-AMC as substrate after 80 mins by fluorimetric analysis
Endpoint: Ki (nM)
Numbers only, in nM.

Any idea what its Ki is? The molecule is CCN(CC)c1ccc2cc(C(=O)NC3(C(=O)N(C)N(C)C#N)CCCCC3)c(=O)oc2c1 19

====

Molecular target: Cathepsin K (Homo sapiens)
Sequence (P43235 whole entry): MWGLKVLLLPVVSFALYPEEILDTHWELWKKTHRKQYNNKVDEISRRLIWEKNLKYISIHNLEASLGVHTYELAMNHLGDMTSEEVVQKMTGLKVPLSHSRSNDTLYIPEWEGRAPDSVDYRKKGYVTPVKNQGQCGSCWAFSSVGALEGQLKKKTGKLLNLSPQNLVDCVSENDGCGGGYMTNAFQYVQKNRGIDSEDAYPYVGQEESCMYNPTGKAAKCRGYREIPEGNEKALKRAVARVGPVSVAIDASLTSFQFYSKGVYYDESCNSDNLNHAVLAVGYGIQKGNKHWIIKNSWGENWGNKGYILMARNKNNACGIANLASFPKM
Experiment: Inhibition of human recombinant cathepsin K using Z-Leu-Arg-AMC as substrate after 10 mins by fluorimetric analysis
Please go through the items and note down their Ki.
Numbers only, in µM.

- CN(C)c1cccc2c(S(=O)(=O)NC3(C(=O)NCC#N)CCCCC3)cccc12: 0.88

Let us move to another entry and its Ki.
Recorded Ki of CCN(CC)c1ccc2cc(C(=O)NC3(C(=O)NCC#N)CCCCC3)c(=O)oc2c1 , please. 0.23
